Test system: MCF7
Assay Explanation: Cytotoxicity against human MCF7 cells after 48 hrs by MTT assay
Assay type: functional, cell-based
Cond: MCF7, 48 h
Quick list: IC50 per entry.
Note: unit µM is implicit; provide only the numeric part.

Requested read-out: IC50. Entry: COc1cc(C(CC=C(C)C)SC(=O)c2ccc(C)cc2)c(OC)c2c1/C(=N/O)C=C/C2=N\O (stereo not given) 15.8

What value of IC50 has been reported for the following compound? COc1cc(C(CC=C(C)C)SC(=O)c2cccc(F)c2)c(OC)c2c1/C(=N/O)C=C/C2=N\O (stereo not given) 38.9

I'd like to know its IC50. The compound in question is `COc1cc([C@@H](CC=C(C)C)SCCC(C)C)c(OC)c2c1/C(=N/O)C=C/C2=N\O` 39.4

// returns reported IC50 for input COc1cc(C(CC=C(C)C)SCC=C(C)C)c(OC)c2c1/C(=N/O)C=C/C2=N\O (stereo not given) 33.7

Consider the compound COc1cc(C(=O)SC(CC=C(C)C)c2cc(OC)c3c(c2OC)/C(=N/O)C=C/C3=N\O)cc(OC)c1OC (stereo not given) and give its measured IC50. 9.23

Would you kindly share the measured IC50 for `COc1cc(C(=O)S[C@H](CC=C(C)C)c2cc(OC)c3c(c2OC)/C(=N/O)C=C/C3=N\O)cc(OC)c1OC` ? 12.8

---

Tested on: Bel-7402
Assay Explanation: Cytotoxicity against human Bel7402 cells after 48 hrs by MTT assay
Format: functional, cell-based
Cond: Bel-7402, 48 h
Below, each entry is listed alongside its reported pIC50.
On this scale, pIC50 is minus log10 of a concentration expressed in M (mol/L).

CCCCCCCSC(CC=C(C)C)c1cc(OC)c2c(c1OC)/C(=N/O)C=C/C2=N\O (stereo not given); 5.09
CCCCCCCCCSC(CC=C(C)C)c1cc(OC)c2c(c1OC)/C(=N/O)C=C/C2=N\O (stereo not given); 4.86

Look up pIC50: COc1cc(C(CC=C(C)C)SC(=O)c2cccnc2)c(OC)c2c1/C(=N/O)C=C/C2=N\O (stereo not given) 4.99

Endpoint output: pIC50 of COc1cc(C(CC=C(C)C)SC(=O)C=C(C)C)c(OC)c2c1/C(=N/O)C=C/C2=N\O (stereo not given) . Value? 5.34

Entry under review: COc1cccc(C(=O)SC(CC=C(C)C)c2cc(OC)c3c(c2OC)/C(=N/O)C=C/C3=N\O)c1 (stereo not given) . Reported pIC50? 5.26

What does the data say about its pIC50? Entry: CCCCCC(=O)SC(CC=C(C)C)c1cc(OC)c2c(c1OC)/C(=N/O)C=C/C2=N\O (stereo not given) 4.65

I have this molecule here, CCC(=O)SC(CC=C(C)C)c1cc(OC)c2c(c1OC)/C(=N/O)C=C/C2=N\O (stereo not given) , and I need its recorded pIC50. 5.56

What does the data say about its pIC50? Entry: `COc1cc(C(=O)S[C@@H](CC=C(C)C)c2cc(OC)c3c(c2OC)/C(=N/O)C=C/C3=N\O)cc(OC)c1OC` 6.20

# pIC50 lookup, item COc1cc(C(CC=C(C)C)SC(=O)c2ccc([N+](=O)[O-])cc2)c(OC)c2c1/C(=N/O)C=C/C2=N\O (stereo not given) 4.90

---

Measured pIC50 by item
System: MCF7
Assay Explanation: Cytotoxicity against human MCF7 cells after 48 hrs by MTT assay
Format: functional, cell-based
Cond: MCF7, 48 h
FYI, pIC50 means -log10 of a concentration in mol per litre.

COc1cc(C(CC=C(C)C)SC(=O)c2ccc(N)cc2)c(OC)c2c1/C(=N/O)C=C/C2=N\O (stereo not given); 4.71
COc1cc(C(CC=C(C)C)SC(=O)c2ccco2)c(OC)c2c1/C(=N/O)C=C/C2=N\O (stereo not given); 4.55
COc1cc(C(CC=C(C)C)SC(=O)c2ccc([N+](=O)[O-])cc2)c(OC)c2c1/C(=N/O)C=C/C2=N\O (stereo not given); 4.35
COc1ccc(C(=O)S[C@@H](CC=C(C)C)c2cc(OC)c3c(c2OC)/C(=N/O)C=C/C3=N\O)cc1OC; 4.82
COc1ccccc1C(=O)SC(CC=C(C)C)c1cc(OC)c2c(c1OC)/C(=N/O)C=C/C2=N\O (stereo not given); 4.70

Record request: pIC50 value, item COc1cc(C(CC=C(C)C)SC(=O)c2ccccc2)c(OC)c2c1/C(=N/O)C=C/C2=N\O (stereo not given) 4.76

Would you mind telling me what pIC50 value was observed for COc1cc(C(CC=C(C)C)SC(=O)c2cccs2)c(OC)c2c1/C(=N/O)C=C/C2=N\O (stereo not given) ? 4.62

Recorded pIC50 for `COc1cc([C@H](CC=C(C)C)SCCC(C)C)c(OC)c2c1/C(=N/O)C=C/C2=N\O` , please? 4.58

# lookup: pIC50 of CC(C)=CC[C@@H](O)C1=CC(=O)c2c(O)ccc(O)c2C1=O [SHIKONIN] 5.62

---

System: MCF7
Assay Explanation: Cytotoxicity against human MCF7 cells after 48 hrs by MTT assay
Assay type: functional, cell-based
Cond: MCF7, 48 h
Listed compounds paired with reported pIC50
By convention, pIC50 is the negative base-10 log of a molar concentration.

Please review the following examples before continuing.
COc1cccc(C(=O)SC(CC=C(C)C)c2cc(OC)c3c(c2OC)/C(=N/O)C=C/C3=N\O)c1 (centres undefined); 4.45
COc1ccc(C(=O)S[C@H](CC=C(C)C)c2cc(OC)c3c(c2OC)/C(=N/O)C=C/C3=N\O)cc1OC; 4.71
COc1cc(C(CC=C(C)C)SC(=O)C=C(C)C)c(OC)c2c1/C(=N/O)C=C/C2=N\O (centres undefined); 4.52

Then this compound:
So what's the measured pIC50 for this one? `O=c1[nH]cc(F)c(=O)[nH]1` 4.54

---

Test system: Bel-7402
Assay Explanation: Cytotoxicity against human Bel7402 cells after 48 hrs by MTT assay
Assay type: functional, cell-based
Cond: Bel-7402, 48 h
Measured pIC50 values are reported for all entries that follow.
// returns pIC50 (minus log10 of molar concentration), number only

As a guide, the following entries are already answered.
COc1cc(C(CC=C(C)C)SC(=O)c2cccs2)c(OC)c2c1/C(=N/O)C=C/C2=N\O (stereo unspecified); 5.52
COc1cc([C@H](CC=C(C)C)SCCC(C)C)c(OC)c2c1/C(=N/O)C=C/C2=N\O; 5.31
COc1cc(C(CC=C(C)C)SC(=O)c2ccc(Cl)cc2)c(OC)c2c1/C(=N/O)C=C/C2=N\O (stereo unspecified); 5.94
COc1cc(C(CC=C(C)C)SC(=O)c2ccc(N)cc2)c(OC)c2c1/C(=N/O)C=C/C2=N\O (stereo unspecified); 5.90
COc1cc(C(CC=C(C)C)SCCC(C)C)c(OC)c2c1/C(=N/O)C=C/C2=N\O (stereo unspecified); 5.27
COc1cc(C(CC=C(C)C)SC(=O)c2cccc(Cl)c2)c(OC)c2c1/C(=N/O)C=C/C2=N\O (stereo unspecified); 4.92

What measured pIC50 goes with COc1cc(C(CC=C(C)C)SC(=O)c2ccco2)c(OC)c2c1/C(=N/O)C=C/C2=N\O (stereo unspecified) ? 5.14

Name the reported pIC50 value associated with the compound CCCCCCCCSC(CC=C(C)C)c1cc(OC)c2c(c1OC)/C(=N/O)C=C/C2=N\O (stereo unspecified) 5.20

Record request: pIC50 value, item COc1cc(C(CC=C(C)C)SC(=O)c2ccccc2F)c(OC)c2c1/C(=N/O)C=C/C2=N\O (stereo unspecified) 5.87

// query pIC50 value for entry COc1cc(C(CC=C(C)C)SC(=O)c2ccc(F)cc2)c(OC)c2c1/C(=N/O)C=C/C2=N\O (stereo unspecified) 6.05

Tell me the measured pIC50 of CCCCCCSC(CC=C(C)C)c1cc(OC)c2c(c1OC)/C(=N/O)C=C/C2=N\O (stereo unspecified) , please. 4.93

Return reported pIC50; argument: CCSC(CC=C(C)C)c1cc(OC)c2c(c1OC)/C(=N/O)C=C/C2=N\O (stereo unspecified) 4.70

# get_value(readout='pIC50', item= COc1ccc(C(=O)SC(CC=C(C)C)c2cc(OC)c3c(c2OC)/C(=N/O)C=C/C3=N\O)cc1OC (stereo unspecified) ) 6.18

Need pIC50 of `COc1ccc(C(=O)S[C@@H](CC=C(C)C)c2cc(OC)c3c(c2OC)/C(=N/O)C=C/C3=N\O)cc1OC` , thanks. 6.07

Endpoint output: pIC50 of COc1cc(C(CC=C(C)C)SC(=O)c2ccncc2)c(OC)c2c1/C(=N/O)C=C/C2=N\O (stereo unspecified) . Value? 4.57

Value lookup for pIC50; key = `COc1cc([C@@H](CC=C(C)C)SC(=O)c2ccccc2)c(OC)c2c1/C(=N/O)C=C/C2=N\O` 5.53
